Recorded measurements of MIC, one per entry
# Test system: Staphylococcus epidermidis
# test details: Antibacterial activity against methicillin-sensitive Staphylococcus epidermidis ATCC 12228 assessed as growth inhibition after 18 hrs by agar dilution method
# Type: functional
# test settings: ATCC 12228, 18 h

// below: answered compounds
CC[C@H]1OC(=O)[C@H](C)[C@@H](O[C@H]2C[C@@](C)(OC)[C@@H](O)[C@H](C)O2)[C@H](C)[C@@H](O[C@@H]2O[C@H](C)C[C@H](N(C)C)[C@H]2O)[C@](C)(O)C[C@@H](C)CN(C)[C@H](C)[C@@H](O)[C@]1(C)O ... > 256 µg/mL
CC[C@H]1OC(=O)[C@H](C)[C@@H](O[C@H]2C[C@@](C)(OC)[C@@H](O)[C@H](C)O2)[C@H](C)[C@@H](O[C@@H]2O[C@H](C)C[C@H](N(C)C)[C@H]2O)[C@](C)(O)C[C@@H](C)C(=O)[C@H](C)[C@@H](O)[C@]1(C)O ... 16 µg/mL

Query compound follows.
Could you tell me which MIC is on file for CC[C@@H]1[C@@H](C)O[C@@](OC)([C@@H](C)[C@H](O)[C@H](C)[C@H]2OC(=O)/C=C/C=C/[C@H](C)[C@@H]([C@@H](C)[C@@H](O)[C@H](C)[C@@]3(OC)C[C@@H](O[C@H]4C[C@H](O)[C@H](O)[C@H](C)O4)[C@H](C)[C@@H](C)O3)OC(=O)/C=C/C=C/[C@@H]2C)C[C@H]1O[C@H]1C[C@H](O)[C@H](O)[C@H](C)O1 ? 64 µg/mL
